- Test system: Fibroblast
- protocol_description: Multiplex assay against human fibroblast
- Type: toxicity, cell-based
- cond: 24 h, 1 µM, compound concentration 1 uM, replicate 1
Threshold check on Total Cell Count: strictly below 200 is Yes; on or above 200 is No.

Check if Total Cell Count falls below 200 for Cl.O=C(c1ccc(Nc2nccc(-c3cc4ccccc4s3)n2)cc1)N1CCC(N2CCCC2)CC1 .
No

Now give it for CN1CCC(=C2c3ccccc3CC(=O)c3sccc32)CC1.O=C(O)/C=C/C(=O)O [KETOTIFEN FUMARATE] too.
Yes

Now give it for Cc1ccc(C(=O)Nc2cccc(C(F)(F)F)c2)cc1Nc1nc(-c2cccnc2)nc2c1cnn2C too.
Yes

Now give it for CCOC(=O)c1c(C)[nH]c2ccc3c(c12)CN1CCc2cc(OC)ccc2C1O3 (stereo unspecified) too.
Yes

Now give it for CCc1cccc(CC)c1NC(=O)c1nn(C)c2c1CCc1cnc(Nc3ccc(C(=O)NC4CCN(C)CC4)cc3OC(F)(F)F)nc1-2 too.
Yes

Now give it for Cc1cc(C)c(S(=O)(=O)N(Cc2ccc(-c3cccc(S(C)(=O)=O)c3)cc2)Cc2ccc(C(F)(F)F)o2)c(C)c1 too.
Yes

====

For each entry below, report its Population Membrane Permeable-Phenotype (%) value.
- Tested on: HEK-293T
- protocol_description: Multiplex assay against HEK293T
- Assay type: toxicity, cell-based
- cond: human, 24 h, 10 µM, compound concentration 10 uM, replicate 2
Please give a number only; it is taken to be in %.

// lookup Population Membrane Permeable-Phenotype (%) for O=C(Nc1cccnn1)N1CCC(=Cc2cccc(Oc3ccc(C(F)(F)F)cn3)c2)CC1
3

Now give it for O=C1N/C(=N/c2ccccc2F)S/C1=C\c1ccc(C(=O)O)cc1 too.
8

Now give it for COc1cccc2cc(-c3nc([C@H]4CC[C@H](C(=O)O)CC4)n4ncnc(N)c34)[nH]c12 too.
5

Now give it for COCC(=O)NC/C=C/c1ccc2ncnc(Nc3ccc(Oc4ccc(C)nc4)c(C)c3)c2c1 too.
6

Now give it for O=C(Nc1ccc(-n2nc(-c3cccnc3)cc2C(F)(F)F)cn1)c1ccc(-c2ccccc2)c(F)c1 too.
6

Now give it for C=CCn1c(=O)c2cnc(Nc3ccc(N4CCN(C)CC4)cc3)nc2n1-c1cccc(C(C)(C)O)n1 too.
3

Now give it for Cc1cn(-c2cc(NC(=O)c3ccc(C)c(Nc4nccc(-c5cccnc5)n4)c3)cc(C(F)(F)F)c2)cn1 too.
5

====

- Tested on: HEK-293T
- protocol_description: Multiplex assay against HEK293T
- Format: toxicity, cell-based
- cond: human, 24 h, 1 µM, compound concentration 1 uM, replicate 1
observation_type: Population Normal (%)
Please give a number only; it is taken to be in %.

// lookup Population Normal (%) for COc1ccc(-c2ccc3c(N4CCOCC4)nc(N4C[C@@H](C)O[C@@H](C)C4)nc3n2)cc1CO [Ku-0063794]
88

Now give it for CN1CCC(=C2c3ccccc3CC(=O)c3sccc32)CC1.O=C(O)/C=C/C(=O)O [KETOTIFEN FUMARATE] too.
91

Now give it for Cn1nc(C(F)(F)F)cc1-c1cnc(N2CCc3cc(S(=O)(=O)Nc4c(F)cc(Cl)cc4F)cc(N4CCCC4=O)c32)nc1 [TP-020] too.
92

====

- Test system: Fibroblast
- protocol_description: Multiplex assay against human fibroblast
- Format: toxicity, cell-based
- cond: 24 h, 10 µM, compound concentration 10 uM, replicate 1
observation_type: Population Healthy Nuclei (%)
Please give a number only; it is taken to be in %.

// lookup Population Healthy Nuclei (%) for Cl.Oc1ccc2c3c1O[C@H]1c4[nH]c5c(c4C[C@@]4(O)[C@@H](C2)N(CC2CC2)CC[C@]314)C[C@@]1(O)[C@H]2Cc3ccc(O)c4c3[C@@]1(CCN2CC1CC1)[C@H]5O4
62

Now give it for O=C(Nc1cccnn1)N1CCC(=Cc2cccc(Oc3ccc(C(F)(F)F)cn3)c2)CC1 too.
57

Now give it for CCCn1c(=O)c2[nH]c(-c3cnn(Cc4cccc(C(F)(F)F)c4)c3)nc2n(CC)c1=O too.
24

Now give it for Cl.O=c1c2cccn2c2ccccc2n1CCCN1CCC(c2ccc(Cl)cc2)CC1 too.
49

Now give it for COCC(=O)NC/C=C/c1ccc2ncnc(Nc3ccc(Oc4ccc(C)nc4)c(C)c3)c2c1 too.
34

Now give it for COC(=N)c1nc2ccc3ncnc(Nc4ccc(OC)cc4F)c3c2s1 too.
62

Now give it for C=CCn1c(=O)c2cnc(Nc3ccc(N4CCN(C)CC4)cc3)nc2n1-c1cccc(C(C)(C)O)n1 too.
47

Now give it for CCOC(=O)c1c(C)[nH]c2ccc3c(c12)CN1CCc2cc(OC)ccc2C1O3 (stereo not given) too.
46

Now give it for CCN1CCN(c2ccc(Nc3cc(N(C)C(=O)Nc4c(Cl)c(OC)cc(OC)c4Cl)ncn3)cc2)CC1 too.
61

Now give it for CNc1cc(Oc2cc(C(=O)Nc3cc(N4CCN(C)CC4)cc(C(F)(F)F)c3)ccc2C)ncn1 too.
19

====

- Tested on: HEK-293T
- protocol_description: Incucyte cell viability with HEK293T; also: filed as whole numbers so only -1 and 0 and 1 occur
- Format: toxicity, cell-based
- cond: human, 6 h, 10 µM, compound concentration 10 uM, replicate number 1, timepoint 6 hours
observation_type: Growth Rate
Give the figure by itself; no unit, no explanation.

// lookup Growth Rate for N[C@@H](Cc1cc(I)c(Oc2ccc(O)c(I)c2)c(I)c1)C(=O)O [LIOTHYRONINE]
1

Now give it for Cc1c(C(=O)O)cc(-c2ccc(C3CCNCC3)cc2)c2ccc(-c3ccc(C(F)(F)F)cc3)cc12.Cl too.
0

Now give it for Cn1nc(C(F)(F)F)cc1-c1cnc(N2CCc3cc(S(=O)(=O)Nc4c(F)cc(Cl)cc4F)cc(N4CCCC4=O)c32)nc1 [TP-020] too.
0

Now give it for CCC[C@H](Oc1cc(C)c(-n2cc(C(F)(F)F)cn2)c(C)c1)c1ccc(C(=O)NCCC(=O)O)cc1 [PF-06291874] too.
0

Now give it for C=CCn1c(=O)c2cnc(Nc3ccc(N4CCN(C)CC4)cc3)nc2n1-c1cccc(C(C)(C)O)n1 [ADAVOSERTIB] too.
0

Now give it for CCNc1cc(N[C@H]2CC[C@H](O)CC2)nc(Nc2ccc3c(ccn3Cc3ccccc3)c2)n1 too.
0

====

- System: Fibroblast
- protocol_description: Multiplex assay against human fibroblast
- Assay type: toxicity, cell-based
- cond: 48 h, 1 µM, compound concentration 1 uM, replicate 1
For each entry below, report its Population Apoptotic (%) value.
Please give a number only; it is taken to be in %.

// lookup Population Apoptotic (%) for O=C(Nc1ccc(-c2ccnc(Nc3ccc(N4CCOCC4)cc3)n2)cc1)[C@@H]1CCCN1
60

Now give it for CCOc1cc2ncc(C#N)c(Nc3ccc(OCc4ccccn4)c(Cl)c3)c2cc1NC(=O)/C=C/CN(C)C too.
61

Now give it for Cl.Oc1ccc2c3c1O[C@H]1c4[nH]c5c(c4C[C@@]4(O)[C@@H](C2)N(CC2CC2)CC[C@]314)C[C@@]1(O)[C@H]2Cc3ccc(O)c4c3[C@@]1(CCN2CC1CC1)[C@H]5O4 too.
60

====

For each entry below, report its Population Healthy Nuclei (%) value.
- Test system: HEK-293T
- protocol_description: Multiplex assay against HEK293T
- Format: toxicity, cell-based
- cond: human, 12 h, 10 µM, compound concentration 10 uM, replicate 1
Please give a number only; it is taken to be in %.

// lookup Population Healthy Nuclei (%) for CCOc1cc2ncc(C#N)c(Nc3ccc(OCc4ccccn4)c(Cl)c3)c2cc1NC(=O)/C=C/CN(C)C
52

Now give it for COC(=N)c1nc2ccc3ncnc(Nc4ccc(OC)cc4F)c3c2s1 too.
66

Now give it for O=C(Nc1ccc(-n2nc(-c3cccnc3)cc2C(F)(F)F)cn1)c1ccc(-c2ccccc2)c(F)c1 too.
23

====

- Test system: HEK-293T
- protocol_description: Multiplex assay against HEK293T;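 as to Population Tubulin-Different-Phenotype (%): share of the cells with healthy nuclei that show this phenotype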
- Format: toxicity, cell-based
- cond: human, 12 h, 10 µM, compound concentration 10 uM, replicate 2
observation_type: Population Tubulin-Different-Phenotype (%)
Just the number plus its unit, please.

Notebook entry, HEK-293T assay: Population Tubulin-Different-Phenotype (%) of Cc1ccc2nc(NCCN)c3ncc(C)n3c2c1.O=C(O)C(F)(F)F.O=C(O)C(F)(F)F = ?
19%

Now give it for COc1cc(N2CCN(C)CC2)ccc1Nc1ncc2c(n1)N(C)c1ccccc1C(=O)N2C too.
100%

Now give it for CCN1CCN(c2ccc(Nc3cc(N(C)C(=O)Nc4c(Cl)c(OC)cc(OC)c4Cl)ncn3)cc2)CC1 too.
24%

Now give it for Cc1ccc(C(=O)Nc2cccc(C(F)(F)F)c2)cc1Nc1nc(-c2cccnc2)nc2c1cnn2C too.
92%

Now give it for CCCn1c(=O)c2[nH]c(-c3cnn(Cc4cccc(C(F)(F)F)c4)c3)nc2n(CC)c1=O too.
31%

Now give it for COc1ccc(S(=O)(=O)N(CCO)c2ccccc2CN(C)C/C=C/c2ccc(Cl)cc2)cc1.O=P(O)(O)O too.
36%
